Where these numbers come from: PubChem BioAssay (NCI)

# Tested on: U251 CNS
# MEASUREMENT_PROTOCOL: NCI-60 one-dose screen, 48 h
# MEASUREMENT_SETUP: 10 µM unless noted
About 83,000 compounds went through this panel and 20% of them were active in at least one assay; those are over-represented in the sample as a whole. Active and inactive are the calls of the source. The calls were made as follows: active = growth percent below 10; inactive = the rest.
Possible outcomes: YES (active), NO (inactive)

> print(dat)
                                   compound  class.assignment
1  COc1ccc(-c2nnc(NC(=O)CN3CCN(c4cc5c(cc4F)c(=O)c(C(=O)O)cn5C4CC4)CC3)s2)cc1OC                NO
2  CCC1CN2C(=N1)c1ccccc1-c1cc(Cl)ccc12 (configuration not stated)                NO
3          COc1ccc2c(c1)nnc1c3cccnc3[nH]c21               YES
4  O=c1c(-c2ccc3c(c2)OCO3)coc2c(CO)c(O)ccc12               YES
5  COc1cc(CN(c2ccc(Cl)cc2)C2OC(=O)c3ccccc32)cc(OC)c1OC (configuration not stated)                NO
6     FC(F)(F)c1cn(CCN2CCOCC2)c2ncnc(Cl)c12                NO
7      N#Cc1c(N)nc(Cl)c(C#N)c1C(=O)c1ccccc1                NO

* * *

# Test system: HOP-62 NSCLC
# MEASUREMENT_PROTOCOL: NCI-60 one-dose screen, 48 h (100 = growth as untreated, 0 = no growth, -100 = all killed)
# MEASUREMENT_SETUP: 10 µM unless noted
About 83,000 compounds went through this panel and 20% of them were active in at least one assay; those are over-represented in the sample as a whole.
ASSAY_ENDPOINT: growth (%)

> print(dat)
                                    compound  system.tested  test.value
 1  CS(=O)(=O)OCC(COS(C)(=O)=O)C(c1ccccc1)c1ccccc1   HOP-62 NSCLC        91.2
 2          CCCCCCCCCCCCCCCCCCNCc1ccc(Cl)cc1   HOP-62 NSCLC       -77.7
 3  CC[C@@]1(O)C(=O)OCc2c1cc1n(c2=O)Cc2c-1nc1ccccc1c2/C=N/OC(C)(C)C   HOP-62 NSCLC       -24.1
 4                       CCNc1ncnc2n[nH]nc12   HOP-62 NSCLC        95.7
 5  C#C[C@@]1(O)[C@@H](CO)O[C@@H](n2cc(Br)c3c(Cl)ccnc32)[C@@H]1O   HOP-62 NSCLC        36.4
 6  COc1cc(NS(C)(=O)=O)ccc1Cc1c2ccccc2nc2ccccc12   HOP-62 NSCLC       -13.9
 7  O=C(Nc1ccc(-n2cc(-c3ccncc3)c(-c3ccc(O)c(Cl)c3)n2)cc1)c1ccc(Cl)c(C(F)(F)F)c1   HOP-62 NSCLC        33.6
 8  CCC(N)(C(=O)O)c1ccc(F)cc1 (stereo unspecified)   HOP-62 NSCLC         104
 9                          COc1ccc(N)c(S)c1   HOP-62 NSCLC        90.5
10  O=C(O)c1ccc(-n2cc(/C=N/Nc3ccc(Cl)cc3)c(-c3ccc(F)c(F)c3)n2)cc1   HOP-62 NSCLC         107
11  O=C(Nc1cccc([N+](=O)[O-])c1)c1ccc2ccccc2c1O   HOP-62 NSCLC          53
12  O=C(Nc1ccc(-n2ccc3c(NC(=O)c4ccccc4)ncnc32)cc1)Nc1cccc(Cl)c1Cl   HOP-62 NSCLC         -32
13  CCN(CC)CCNCC(O)Cc1ccc(OC)cc1 (stereo unspecified)   HOP-62 NSCLC         102
14                                 CNC(=O)NN   HOP-62 NSCLC        94.7
15  COc1ccc(-c2nn(-c3ccc(NC(=O)c4cc(C(F)(F)F)cc(C(F)(F)F)c4)cc3)cc2-c2ccncc2)cc1Cl   HOP-62 NSCLC          67
16  O=C(COc1ccc(Cl)cc1Cl)N1N=C(c2ccc(Cl)cc2Cl)CC1(O)c1cc(F)c(Cl)cc1Cl (stereo unspecified)   HOP-62 NSCLC         105
17  NC(CCCC(N)C(=O)c1ccccc1)C(=O)O (stereo unspecified)   HOP-62 NSCLC        90.3
18  COc1cc(-c2nc3ccccc3s2)ccc1OCc1nc2n(n1)S(=O)(=O)c1ccccc1N2c1ccccc1   HOP-62 NSCLC        88.2
19  COc1ccc(-c2nn(-c3ccc(NC(=O)Nc4ccc(Cl)c(C(F)(F)F)c4)cc3)cc2-c2ccncc2)cc1Cl   HOP-62 NSCLC      -0.289
20        CCCCCC/C=N/Nc1ccc([N+](=O)[O-])cn1   HOP-62 NSCLC        87.8
21  COc1ccc(Cn2cc(COc3ccc4c5ccnc(C)c5n(CCCc5ccccc5)c4c3)nn2)cc1   HOP-62 NSCLC        90.7

* * *

# Tested on: NCI-H226 lung
# MEASUREMENT_PROTOCOL: NCI-60 one-dose screen, 48 h (100 = growth as untreated, 0 = no growth, -100 = all killed)
# MEASUREMENT_SETUP: 10 µM unless noted
About 83,000 compounds went through this panel and 20% of them were active in at least one assay; those are over-represented in the sample as a whole.
# growth per entry
ASSAY_ENDPOINT: growth (%)

> print(dat)
                                    molecule  system.tested  unit.spec  test.value
 1  O=C(O)c1ccc(-n2cc(/C=N/Nc3ccc(F)cc3)c(-c3cccc(C(F)(F)F)c3)n2)cc1  NCI-H226 lung          %        92.5
 2  CN1CCN(CC(=O)N(C)c2ccc(N=C(c3ccccc3)c3c(O)[nH]c4ccc(C#N)cc34)cc2)CC1  NCI-H226 lung          %        43.2
 3       COC(=O)Nc1nc2ccc(Sc3ccccc3)cc2[nH]1  NCI-H226 lung          %        19.9
 4                       CCNc1ncnc2n[nH]nc12  NCI-H226 lung          %        90.8
 5  COCCNC(C(=O)c1ccccc1)c1ccccc1 (stereo unspecified)  NCI-H226 lung          %          91
 6             O=C(N/N=C/c1ccccc1O)c1ccccc1O  NCI-H226 lung          %          67
 7  Nn1c(CN2CCN(c3cc4c(cc3F)c(=O)c(C(=O)O)cn4C3CC3)CC2)n[nH]c1=S  NCI-H226 lung          %         107
 8  O=[N+]([O-])c1ccc(NS(=O)(=O)c2ccccc2)c2ccccc12  NCI-H226 lung          %        59.4
 9  CC(C)(C)C(=O)Nc1nc2c(s1)CCc1ccn(S(=O)(=O)c3ccccc3)c1-2  NCI-H226 lung          %        92.4
10  C[C@@H]1CC2C3C[C@H](F)C4=CC(=O)C=C[C@]4(C)[C@@]3(F)[C@@H](O)C[C@]2(C)[C@@]1(O)C(=O)CO (stereo partly specified)  NCI-H226 lung          %        70.5
11           OCc1cnccc1NC12CC3CC(CC(C3)C1)C2  NCI-H226 lung          %        95.4
12    O=[N+]([O-])c1cccc2cc(S(=O)(=O)O)ccc12  NCI-H226 lung          %         103
13  CN(C)c1ccc(/C=N/n2c(-c3cc(F)c(Cl)cc3Cl)nn(CN3CCOCC3)c2=S)cc1  NCI-H226 lung          %        97.2
14              CCCC(C)(C)COC(=O)c1cccc(N)c1  NCI-H226 lung          %        87.8
15  COc1ccc(Cl)cc1NC(=O)c1cc2c([nH]1)-c1nc(N)sc1CCC2  NCI-H226 lung          %        95.6
16  Cc1cc2nc(-c3c(N)ncc(C#N)c3-c3ccc(Cl)cc3)[nH]c2cc1C  NCI-H226 lung          %        91.7
17  CC1(C)N=C(N)N=C(N)N1c1ccc(F)c(C(F)(F)F)c1  NCI-H226 lung          %        54.1
18  O=C(Nc1ccc(F)cc1)Nc1ccc(Cl)c([N+](=O)[O-])c1  NCI-H226 lung          %          16
19  CCOc1ccccc1C(=O)N1CCN(c2cc(Cl)cc(Cl)c2)CC1  NCI-H226 lung          %        65.6
20  CC(=O)N1N=C2N(Cc3ccccc3)C(=O)c3c(sc4c3CCCC4)N2C1c1cn(-c2ccccc2)nc1-c1ccc(Cl)cc1 (stereo unspecified)  NCI-H226 lung          %        91.9
21  CCOc1ccc(Cc2nccc3cc(OCC)c(OCC)cc23)cc1OCC  NCI-H226 lung          %        73.3
